The origin of these recorded values is patent US8865865B2.

target: Recombinantly produced human furin (Homo sapiens); construct: made in house; assay: Enzyme kinetic studies to determine the inhibitory effect on furin (fluorogenic substrate Pyr-Arg-Thr-Lys-Arg-AMC); type: biochemical; conditions: Table 2; substrate 12.5 μM, furin approx. 0.95 nM, competitive reversible model; read-out: Ki value for the inhibition of furin
Square brackets hold non-standard residues; d marks the D form. Peptide text beside a SMILES is read from it. * marks the point of attachment. hArg = N=C(N)NCCCC[C@H](N)C(=O)O; Agmatine = N=C(N)NCCCCN*; PhAc = O=C(Cc1ccccc1)*
One threshold, 1000 nM, splits the recorded Ki values: lower ones are true, equal or higher ones are false.

Answered cases to consult:
{"compound": "CC(C)C(NC(=O)C(CCCNC(=N)N)NC(=O)Cc1ccccc1)C(=O)NC(CCCNC(=N)N)C(=O)NCCCCN (stereo not shown)", "labelValue": "false"}
{"compound": "CC(C)[C@H](NC(=O)[C@H](CCCNC(=N)N)NC(=O)Cc1ccccc1)C(=O)N[C@@H](CCCNC(=N)N)C(=O)NCCCCNC(=N)N [Inhibitor 2] (PhAc-Arg-Val-Arg-Agmatine)", "labelValue": "true"}
{"compound": "CC(C)C(NC(=O)C(CCCNC(=N)N)NC(=O)Cc1ccccc1)C(=O)NC(CCCNC(=N)N)C(=O)NCCCNC(=N)N (stereo not shown)", "labelValue": "true"}
{"compound": "CC(C)C(NC(=O)C(CCCNC(=N)N)NC(=O)Cc1ccccc1)C(=O)NC(CCCNC(=N)N)C(=O)NCC1CCNCC1 (stereo not shown)", "labelValue": "false"}
{"compound": "CC(C)[C@H](NC(=O)[C@H](CCCNC(=N)N)NC(=O)Cc1ccccc1)C(=O)N[C@@H](CCCCNC(=N)N)C(=O)NCCCCNC(=N)N [Inhibitor 11] (PhAc-Arg-Val-[hArg]-Agmatine)", "labelValue": "true"}
{"compound": "CC(C)C(NC(=O)C(CCCNC(=N)N)NC(=O)Cc1ccccc1)C(=O)NC(CCCNC(=N)N)C(=O)NCCCN (stereo not shown)", "labelValue": "false"}

Now look at this entry.
Query: Lab note: Ki threshold 1000 nM. Does this compound come in strictly under it? CC(C)[C@H](NC(=O)[C@H](CCCNC(=N)N)NC(=O)Cc1ccccc1)C(=O)N[C@@H](CCCCN)C(=O)NCCCCNC(=N)N [Inhibitor 10] (PhAc-Arg-Val-Lys-Agmatine)
Result: true

----------
target: Recombinantly produced human furin (Homo sapiens, UniProt P09958); construct: made in house; assay: Enzyme kinetic studies to determine the inhibitory effect on furin (fluorogenic substrate Pyr-Arg-Thr-Lys-Arg-AMC); type: biochemical; settings: Table 3; methods as in practical embodiment 6; read-out: Ki for the inhibition of furin
Sequence (P09958 108-794): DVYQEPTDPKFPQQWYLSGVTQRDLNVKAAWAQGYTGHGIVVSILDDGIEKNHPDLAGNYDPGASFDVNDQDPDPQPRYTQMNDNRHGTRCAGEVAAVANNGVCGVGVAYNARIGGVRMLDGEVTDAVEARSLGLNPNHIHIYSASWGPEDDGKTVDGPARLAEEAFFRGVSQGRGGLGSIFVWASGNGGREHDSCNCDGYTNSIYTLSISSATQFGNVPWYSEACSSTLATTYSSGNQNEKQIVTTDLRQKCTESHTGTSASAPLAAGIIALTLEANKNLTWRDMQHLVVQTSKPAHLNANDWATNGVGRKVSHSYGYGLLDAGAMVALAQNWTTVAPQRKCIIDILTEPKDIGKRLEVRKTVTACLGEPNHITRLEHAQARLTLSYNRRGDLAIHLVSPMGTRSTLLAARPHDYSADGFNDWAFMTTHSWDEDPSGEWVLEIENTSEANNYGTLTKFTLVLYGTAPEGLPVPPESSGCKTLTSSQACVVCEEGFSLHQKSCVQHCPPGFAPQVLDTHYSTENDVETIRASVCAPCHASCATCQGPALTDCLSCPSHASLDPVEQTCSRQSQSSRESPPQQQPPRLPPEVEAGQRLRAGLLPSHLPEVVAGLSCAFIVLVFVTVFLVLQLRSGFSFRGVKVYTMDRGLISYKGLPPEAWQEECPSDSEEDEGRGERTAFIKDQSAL
The reader will find reported Ki values listed item by item below.
Express your answer in nM, writing the number without its unit.

Some solved cases for reference:
{"compound": "CC(C)C(NC(=O)C(CCCNC(=N)N)NC(=O)Cc1ccc(Cl)c(Cl)c1)C(=O)NC(CCCNC(=N)N)C(=O)NCc1ccc(C(=N)N)cc1 (stereo not drawn)", "Ki / nM": 1.2}
{"compound": "CCCCCCCCCCCC(=O)NC(CCCNC(=N)N)C(=O)NC(C(=O)NC(CCCNC(=N)N)C(=O)NCc1ccc(C(=N)N)cc1)C(C)C (stereo not drawn)", "Ki / nM": 6.7}
{"compound": "CC(C)C(NC(=O)C(CCCNC(=N)N)NC(=O)Cc1ccccc1)C(=O)NC(CCCCN)C(=O)NCc1ccc(C(=N)N)cc1 (stereo not drawn)", "Ki / nM": 1.5}
{"compound": "CCCCCCCC(=O)NC(CCCNC(=N)N)C(=O)NC(C(=O)NC(CCCNC(=N)N)C(=O)NCc1ccc(C(=N)N)cc1)C(C)C (stereo not drawn)", "Ki / nM": 0.82}
{"compound": "CCCCCC(=O)NC(CCCNC(=N)N)C(=O)NC(C(=O)NC(CCCNC(=N)N)C(=O)NCc1ccc(C(=N)N)cc1)C(C)C (stereo not drawn)", "Ki / nM": 0.82}
{"compound": "Cc1ccc(S(=O)(=O)NC(CCCNC(=N)N)C(=O)NC(C(=O)NC(CCCNC(=N)N)C(=O)NCc2ccc(C(=N)N)cc2)C(C)C)cc1 (stereo not drawn)", "Ki / nM": 4.8}

Query: Could you share which Ki value was measured for CCCC(=O)NC(CCCNC(=N)N)C(=O)NC(C(=O)NC(CCCNC(=N)N)C(=O)NCc1ccc(C(=N)N)cc1)C(C)C (stereo not drawn) ?
Result: 0.77

Query: Look up Ki for this compound: CC(=O)NC(CCCNC(=N)N)C(=O)NC(C(=O)NC(CCCNC(=N)N)C(=O)NCCCCN)C(C)C (stereo not drawn)
Result: 41200

Query: I'd like to know its Ki. The compound in question is CC(C)C(NC(=O)C(CCCNC(=N)N)NC(=O)Cc1ccccc1)C(=O)NC(CCCCN)C(=O)NCCCCN (stereo not drawn)
Result: 5410
